The reported numbers originate from ChEMBL document CHEMBL3797184.

Assay: Cytotoxicity against mouse RAW264.7 cells at 50 ug/ml after 72 hrs by MTT assay
Assay type: cell-based
Conditions: read-out: INH
Threshold check on cytotoxicity at 72 h, 50 ug/ml: at or above 30% gives criterion met, strictly below gives criterion not met.

* O=C(c1nc2ccccc2s1)N1CCN(c2ccncc2)CC1 | criterion met
* COc1ccccc1N1CCN(C(=O)c2nc3ccccc3s2)CC1 | criterion met
* COc1ccccc1N1CCN(C(=O)c2nc3cc(Cl)ccc3s2)CC1 | criterion met
* O=C(c1nc2cc(Cl)ccc2s1)N1CCOCC1 | criterion not met
* CN1CCN(C(=O)c2nc3ccccc3s2)CC1 | criterion met
* O=C(c1nc2cc(C(F)(F)F)ccc2s1)N1CCSCC1 | criterion not met
* COc1ccc(N2CCN(C(=O)c3nc4cc(Cl)ccc4s3)CC2)cc1 | criterion met
* O=C(c1nc2cc(C(F)(F)F)ccc2s1)N1CCN(c2cnccn2)CC1 | criterion not met
